target: human GPR84 receptor (Homo sapiens, UniProt Q9NQS5); construct: frozen aliquots prepared by acCELLerate; experiment: cAMP HTRF assay for identification of cellular GPR84 antagonists; conditions: CHO-K1 cells stably expressing human GPR84; Forskolin + agonist 6-OAU (EC80); average or median values
Sequence (Q9NQS5 whole entry): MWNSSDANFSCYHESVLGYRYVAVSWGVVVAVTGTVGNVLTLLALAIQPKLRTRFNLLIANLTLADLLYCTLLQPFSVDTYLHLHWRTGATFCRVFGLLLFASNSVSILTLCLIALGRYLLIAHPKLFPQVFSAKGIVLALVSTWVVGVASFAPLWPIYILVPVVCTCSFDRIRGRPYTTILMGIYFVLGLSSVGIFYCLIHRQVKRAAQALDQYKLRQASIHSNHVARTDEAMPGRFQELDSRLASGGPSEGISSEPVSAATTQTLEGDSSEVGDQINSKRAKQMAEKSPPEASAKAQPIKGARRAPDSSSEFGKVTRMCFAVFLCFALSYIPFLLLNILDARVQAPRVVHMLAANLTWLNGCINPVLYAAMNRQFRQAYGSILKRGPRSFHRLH
pIC50: −log10 of the molar value.
property measured: pIC50

| compound | pIC50 |
| --- | --- |
| O=C(NC[C@@H]1COCCO1)c1oc2c(c1C(F)(F)F)-c1nn(Cc3ccccn3)cc1C1(CC1)C2 | 8.15 |

(A) Cc1c(C(=O)NCc2nccs2)oc2c1-c1nn(Cc3ccccn3)cc1CC2
(B) Cc1cc(Cn2cc3c(n2)-c2c(oc(C(=O)NC[C@@H]4CCCO4)c2C)CC3)ccn1
(C) Cc1ccc(Cn2cc3c(n2)-c2c(oc(C(=O)NC[C@@H]4CCCO4)c2C(F)(F)F)CC32CC2)cn1
(D) Cc1c(C(=O)NCCN2CCN(c3cccc(C(F)(F)F)c3)CC2)oc2c1-c1nn(Cc3ccccn3)cc1CC2
Reorder the items by pIC50, least to greatest. Rank them, then answer with their labels in that order. D, A, B, C
(D: 5.78, A: 6.80, B: 7.24, C: 8.15)

* * *

biological target: human GPR84 receptor (Homo sapiens, UniProt Q9NQS5); construct: frozen aliquots prepared by acCELLerate; assay: cAMP HTRF assay for identification of cellular GPR84 antagonists; conditions: CHO-K1 cells stably expressing human GPR84; Forskolin + agonist 6-OAU (EC80); average or median values
property measured: IC50 (nM)

Worked cases, answers included:
| compound | endpoint value |
| --- | --- |
| Cc1c(C(=O)NC[C@@H]2CCCO2)oc2c1-c1nn(C[C@H]3COCCO3)cc1C1(CCC1)C2 | 77 |
| Cn1ccc(CNC(=O)c2oc3c(c2C(F)(F)F)-c2nn(Cc4ccccn4)cc2CC3)n1 | 55 |

(a) O=C(NC[C@@H]1COCCO1)c1oc2c(c1C(F)(F)F)-c1nn(Cc3ccncc3)cc1C1(CCC1)C2
(b) O=C(NC[C@@H]1COCCO1)c1oc2c(c1C(F)(F)F)-c1nn(C[C@H]3COCCO3)cc1CC2
In the pair a and b , the larger recorded IC50 belongs to which? To answer, give the label that identifies your chosen option. a
(a: 21 nM, b: 12 nM)

* * *

target: human GPR84 receptor (Homo sapiens, UniProt Q9NQS5); construct: frozen aliquots prepared by acCELLerate; experiment: cAMP HTRF assay for identification of cellular GPR84 antagonists; conditions: CHO-K1 cells stably expressing human GPR84; Forskolin + agonist 6-OAU (EC80); average or median values
pIC50: −log10 of the molar value.
property measured: pIC50

Worked cases, answers included:
| molecule | pIC50 |
| --- | --- |
| Cc1c(C(=O)NCc2ncco2)oc2c1-c1nn(C[C@H]3COCCO3)cc1C1(CC1)C2 | 6.96 |
| Cc1c(C(=O)NC[C@@H]2CCCO2)oc2c1-c1nn(C[C@@H]3CCCO3)cc1CC2 | 7.46 |
| O=C(NCc1cnccn1)c1oc2c(c1C(F)(F)F)-c1nn(C[C@H]3COCCO3)cc1CC2 | 7.42 |
| CCN1CCC(Cn2cc3c(n2)-c2c(oc(C(=O)NC[C@@H]4CCCO4)c2C(F)(F)F)CC3)CC1 | 6.69 |

(P) COCCNC(=O)c1oc2c(c1C)-c1nn(Cc3ccccn3)cc1CC2
(Q) Cc1c(C(=O)NC[C@@H]2CCCO2)oc2c1-c1nn(CC3(F)CNC3)cc1CC2
In the pair P and Q , the larger recorded pIC50 belongs to which? To answer, give the label that identifies your chosen option. Q
(Q: 6.74, P: 6.54)

Source: patent US12570666B2
